Numbers sourced from patent US20090123479A1.

Target or system: T1, recombinant human IL-23 (human, UniProt Q9NPF7 20-189; P29460 23-328)
T1 construct: also called hIL-23
T1 sequence 1: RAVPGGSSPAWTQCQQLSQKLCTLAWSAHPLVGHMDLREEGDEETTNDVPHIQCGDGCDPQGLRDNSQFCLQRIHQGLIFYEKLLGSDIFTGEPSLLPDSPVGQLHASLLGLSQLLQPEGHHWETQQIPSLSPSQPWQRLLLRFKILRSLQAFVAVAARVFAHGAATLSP
T1 sequence 2: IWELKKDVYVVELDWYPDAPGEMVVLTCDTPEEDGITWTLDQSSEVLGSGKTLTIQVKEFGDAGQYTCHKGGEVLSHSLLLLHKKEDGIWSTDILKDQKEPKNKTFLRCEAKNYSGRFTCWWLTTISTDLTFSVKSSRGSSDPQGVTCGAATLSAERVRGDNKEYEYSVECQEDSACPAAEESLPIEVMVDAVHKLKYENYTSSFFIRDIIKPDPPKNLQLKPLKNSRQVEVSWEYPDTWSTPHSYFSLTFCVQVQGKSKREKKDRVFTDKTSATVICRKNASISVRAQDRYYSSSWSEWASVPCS
Assay summary: SPR (Biacore T100), tissue culture supernatant antibody captured on anti-human IgG, IL-23 analyte
Experimental: Biacore analysis was carried out using a capture surface on a CM5 chip. Anti-human IgG (BR-1008-39) was used as the capturing agent. Anti-human IgG was coupled to a CM5 biosensor chip by primary amine coupling. Humanized antibody was captured on this immobilised surface and defined concentrations of IL-23 were passed over this captured surface. […] Data was analysed using the software inherent to the machine and fitted to the 1:1 model of binding. […]
// Kd lookup, one value per entry
Measured property: Kd (pM)

A10.5M3 (antibody, V domains shown) VH: QVQLVQSGAEVKKPGSSVKVSCKASGYTFASYGITWVRQAPGQGLEWMGENYPRSGNTYYNEKFKGRVTITADKSTSTAYMELSSLRSEDTAVYYCARSEFISTVVAPYYYALDYWGQGTLVTVSS VL: DIVMTQSPDSLAVSLGERATINCKASKKVTIFGSTSALHWYQQKPGQPPKLIYNGAKLESGVPDRFSGSGSGTDFTLTISSLQAEDVAVYYCLQNKEVPYTFGGGTKVEIK    96.2
A3M4 (antibody, human IgG1, kappa, V domains shown, Full length chains) VH: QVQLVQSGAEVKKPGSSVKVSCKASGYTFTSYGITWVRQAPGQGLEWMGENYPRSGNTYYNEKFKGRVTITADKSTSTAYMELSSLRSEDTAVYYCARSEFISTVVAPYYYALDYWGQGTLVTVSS VL: DIVMTQSPDSLAVSLGERATINCKASKKVTIFGSTSALHWYQQKPGQPPKLIYNGAKPESGVPDRFSGSGSGTDFTLTISSLQAEDVAVYYCLQNKEVPYTFGGGTKVEIKR    77.5
A10M4 (antibody, human IgG1, kappa, V domains shown, Full length chains) VH: QVQLVQSGAEVKKPGSSVKVSCKASGYTFASYGITWVRQAPGQGLEWMGENYPRSGNTYYNEKFKGRVTITADKSTSTAYMELSSLRSEDTAMYYCARSEFISTVVAPYYYALDYWGQGTLVTVSS VL: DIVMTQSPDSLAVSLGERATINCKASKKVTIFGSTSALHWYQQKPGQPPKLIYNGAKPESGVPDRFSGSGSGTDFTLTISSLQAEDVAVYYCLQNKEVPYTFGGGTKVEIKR    73.3
A11M4 (antibody, V domains shown) VH: QVQLVQSGAEVKKPGSSVKVSCKASGYTFASYGITWVRQAPGQGLEWMGENYPRSGNTYYNEKFKGRVTITADKSTSTAYMELSSLRSEDTAMYYCARAEFISTVVAPYYYALDYWGQGTLVTVSS VL: DIVMTQSPDSLAVSLGERATINCKASKKVTIFGSTSALHWYQQKPGQPPKLIYNGAKPESGVPDRFSGSGSGTDFTLTISSLQAEDVAVYYCLQNKEVPYTFGGGTKVEIK    44.4
A10M3 (antibody, human IgG1, kappa, V domains shown, Full length chains) VH: QVQLVQSGAEVKKPGSSVKVSCKASGYTFASYGITWVRQAPGQGLEWMGENYPRSGNTYYNEKFKGRVTITADKSTSTAYMELSSLRSEDTAMYYCARSEFISTVVAPYYYALDYWGQGTLVTVSS VL: DIVMTQSPDSLAVSLGERATINCKASKKVTIFGSTSALHWYQQKPGQPPKLIYNGAKLESGVPDRFSGSGSGTDFTLTISSLQAEDVAVYYCLQNKEVPYTFGGGTKVEIKR    106
